test system: Staphylococcus aureus; experiment: Antibacterial activity against penicillin G-resistant Staphylococcus aureus ATCC 14154 by agar inclusion method; format: functional
The compounds listed here are annotated with their MIC.
Readout Name: MIC (µM)

>>> readout_value("CC(=O)OCC1=C(C(=O)[O-])N2C(=O)[C@@H](NC(=O)Cc3cccs3)[C@H]2SC1.[Na+] [CEPHALOTHIN SODIUM]")
480
>>> readout_value("Cn1nnnc1SCC1=C(C(=O)[O-])N2C(=O)[C@@H](NC(=O)Cc3cccs3)[C@H]2SC1.[Na+]")
100
>>> readout_value("Cn1nnnc1SC/C=C/C1=C(C(=O)[O-])N2C(=O)[C@@H](NC(=O)Cc3cccs3)[C@H]2SC1.[Na+]")
200
>>> readout_value("CC(=O)OC/C=C/C1=C(C(=O)[O-])N2C(=O)[C@@H](NC(=O)Cc3cccs3)[C@H]2SC1.[Na+]")
560
